MEASURED_TARGET: Histone-lysine N-methyltransferase NSD2 (Homo sapiens) (UniProt O96028)
Sequence (O96028 whole entry, looked up): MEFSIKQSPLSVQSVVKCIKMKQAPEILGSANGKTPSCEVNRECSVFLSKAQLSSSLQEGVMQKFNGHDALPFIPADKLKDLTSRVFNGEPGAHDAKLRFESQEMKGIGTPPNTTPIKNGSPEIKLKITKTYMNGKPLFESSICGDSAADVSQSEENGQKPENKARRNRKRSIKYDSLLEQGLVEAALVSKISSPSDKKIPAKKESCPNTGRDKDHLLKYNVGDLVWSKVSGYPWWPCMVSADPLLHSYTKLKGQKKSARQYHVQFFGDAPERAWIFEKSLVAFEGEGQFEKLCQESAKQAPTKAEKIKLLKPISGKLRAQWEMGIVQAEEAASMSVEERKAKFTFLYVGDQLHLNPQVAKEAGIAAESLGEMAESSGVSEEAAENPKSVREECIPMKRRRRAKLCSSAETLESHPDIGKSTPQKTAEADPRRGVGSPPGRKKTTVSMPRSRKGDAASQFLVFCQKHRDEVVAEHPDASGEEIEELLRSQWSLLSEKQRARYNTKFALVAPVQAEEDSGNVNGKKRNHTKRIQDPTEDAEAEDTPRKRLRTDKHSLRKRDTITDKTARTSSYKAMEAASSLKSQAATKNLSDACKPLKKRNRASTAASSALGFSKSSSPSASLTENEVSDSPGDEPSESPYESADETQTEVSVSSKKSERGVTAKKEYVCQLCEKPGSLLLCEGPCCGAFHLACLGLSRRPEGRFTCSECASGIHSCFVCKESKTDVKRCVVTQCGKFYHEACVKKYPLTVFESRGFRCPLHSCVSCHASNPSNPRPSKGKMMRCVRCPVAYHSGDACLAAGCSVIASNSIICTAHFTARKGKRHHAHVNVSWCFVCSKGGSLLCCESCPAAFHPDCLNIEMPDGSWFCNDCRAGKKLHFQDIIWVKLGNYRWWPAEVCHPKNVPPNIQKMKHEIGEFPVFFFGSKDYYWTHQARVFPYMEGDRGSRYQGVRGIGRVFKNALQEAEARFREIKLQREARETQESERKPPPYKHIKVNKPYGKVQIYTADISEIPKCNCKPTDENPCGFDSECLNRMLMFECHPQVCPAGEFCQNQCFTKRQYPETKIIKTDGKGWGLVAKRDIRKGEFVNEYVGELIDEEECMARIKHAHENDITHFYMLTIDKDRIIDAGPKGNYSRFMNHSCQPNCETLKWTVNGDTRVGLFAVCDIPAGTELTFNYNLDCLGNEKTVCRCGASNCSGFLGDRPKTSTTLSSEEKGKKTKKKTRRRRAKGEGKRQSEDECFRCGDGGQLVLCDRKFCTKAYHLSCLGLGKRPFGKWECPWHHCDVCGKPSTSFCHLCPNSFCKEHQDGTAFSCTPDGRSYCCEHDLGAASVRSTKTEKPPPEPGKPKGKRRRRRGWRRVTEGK
MEASUREMENT_DESCRIPTION: NSD2 histone methyltransferase activity blockers – biochemical, plate reader, single point, primary screen (AID 624260);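 also: inhibitors reduce the monomethyl H3K36 fluorescence signal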
TEST_SETTINGS: NSD2-SET H3K36me1 DELFIA fluorescence, at 12.5 µM, hits give high values
About 30 (0.07%) of roughly 44,000 compounds were called active. Another 1% or so got no clear call; they are omitted. The entries come from a sample that favours actives as a whole.
MEASURED_PARAMETER: inhibition (%)
State the answer as a number, implicitly in %.

What the record says about `C[C@H]1CN([C@@H](C)CO)S(=O)(=O)c2ccc(C3=CCCC3)cc2O[C@H]1CN(C)C(=O)Cc1ccncc1` : inhibition is -1.21

What the record says about `CNC[C@@H]1OCCCC[C@H](C)Oc2ccc(NS(=O)(=O)c3ccc(F)cc3)cc2C(=O)N([C@@H](C)CO)C[C@@H]1C` : inhibition is -5.42

What the record says about `O=C(C[C@H]1CC[C@H](NC(=O)Nc2ccc(C(F)(F)F)cc2)[C@H](CO)O1)NCCN1CCCC1` : inhibition is -1.99

What the record says about `CC(=O)N(C)C[C@@H]1Oc2cc(-c3cccc(F)c3)ccc2S(=O)(=O)N([C@H](C)CO)C[C@H]1C` : inhibition is -1.69

What the record says about `C[C@@H]1CN([C@H](C)CO)C(=O)c2cc(C#Cc3ccncc3)cnc2O[C@H]1CN(C)Cc1ccncc1` : inhibition is 6.93

What the record says about `C/C=C/c1ccc2c(c1)O[C@H](CN(C)C(=O)CN(C)C)[C@H](C)CN([C@@H](C)CO)S2(=O)=O` : inhibition is 1.3

What the record says about `C[C@@H]1CN([C@H](C)CO)S(=O)(=O)c2ccc(/C=C/c3ccccc3)cc2O[C@@H]1CN(C)Cc1ccccc1` : inhibition is 9.82

What the record says about `C[C@H]1CN([C@@H](C)CO)S(=O)(=O)c2ccc(-c3cccc(C#N)c3)cc2O[C@H]1CN(C)CC1CC1` : inhibition is 18.1

====

MEASURED_TARGET: Histone-lysine N-methyltransferase NSD2 (Homo sapiens) (UniProt O96028)
MEASUREMENT_DESCRIPTION: NSD2 histone methyltransferase activity blockers – biochemical, plate reader, single point, primary screen (AID 624260);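 also: inhibitors reduce the monomethyl H3K36 fluorescence signal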
TEST_SETTINGS: NSD2-SET H3K36me1 DELFIA fluorescence, at 12.5 µM, hits give high values
Among all 44,000 compounds or so, about 30 (0.07%) were called active. Inconclusive results (about 1%) are left out. The entries come from a sample that favours actives as a whole.
Provide the reported inhibition of each item.
State the answer as a number, implicitly in %.

What the record says about `C[C@@H]1CN([C@H](C)CO)C(=O)c2cc(-c3ccc(F)cc3)cnc2O[C@@H]1CN(C)C(=O)C1CCC1` : inhibition is 8.32

What the record says about `C[C@@H]1CN([C@@H](C)CO)C(=O)Cc2cc(NC(=O)Nc3ccc(C(F)(F)F)cc3)ccc2O[C@H]1CN(C)C(=O)Nc1ccc(F)cc1` : inhibition is -13.8

What the record says about `CCC(=O)N(C)C[C@H]1Oc2cc(C#CCOC)ccc2S(=O)(=O)N([C@H](C)CO)C[C@H]1C` : inhibition is -1.1

What the record says about `C[C@@H]1CN([C@H](C)CO)C(=O)c2cc(NS(=O)(=O)c3ccccc3)ccc2O[C@@H](C)CCCCO[C@H]1CN(C)S(=O)(=O)c1ccc(Cl)cc1` : inhibition is -1.56

What the record says about `C[C@H](CO)N1C[C@H](C)[C@@H](CN(C)C(=O)Nc2ccccc2)Oc2ncc(C3=CCCC3)cc2C1=O` : inhibition is -0.747

What the record says about `CCC(=O)N(C)C[C@H]1Oc2cc(-c3ccc(C)cc3)ccc2S(=O)(=O)N([C@@H](C)CO)C[C@H]1C` : inhibition is -0.743

What the record says about `COc1ccc(NC(=O)Nc2ccc3c(c2)[C@@H]2C[C@H](CC(=O)N4CCCCC4)O[C@H](CO)[C@@H]2O3)cc1` : inhibition is 4.87

What the record says about `COc1ccc(NC(=O)N(C)C[C@H]2Oc3ncc(C#C[C@@H](C)O)cc3C(=O)N([C@H](C)CO)C[C@H]2C)cc1` : inhibition is -13

What the record says about `CCCNC(=O)N(C)C[C@H]1Oc2ncc(C#Cc3ccncc3)cc2C(=O)N([C@@H](C)CO)C[C@@H]1C` : inhibition is 4.58

What the record says about `C[C@@H]1CN([C@@H](C)CO)C(=O)Cc2cc(NS(=O)(=O)c3ccc(Cl)cc3)ccc2O[C@H]1CN(C)C(=O)Nc1cccc2ccccc12` : inhibition is -4.23

What the record says about `CNC[C@H]1Oc2cc(-c3ccc(C(=O)N(C)C)cc3)ccc2S(=O)(=O)N([C@@H](C)CO)C[C@@H]1C` : inhibition is 2.38

What the record says about `O=C(Nc1ccc2c(c1)[C@H]1C[C@@H](CC(=O)N3CCc4ccccc4C3)O[C@H](CO)[C@H]1O2)Nc1ccccc1F` : inhibition is 2.01

What the record says about `C[C@@H]1CN([C@@H](C)CO)C(=O)c2c(c3ccccc3n2C)-c2ccccc2CO[C@@H]1CN(C)S(=O)(=O)c1ccc(F)cc1` : inhibition is -1.17

What the record says about `C[C@H]1CN([C@@H](C)CO)S(=O)(=O)c2ccc(Br)cc2O[C@H]1CN(C)C(=O)C1CC1` : inhibition is 6.22

What the record says about `C[C@H](CO)N1C[C@H](C)[C@@H](CN(C)Cc2ccccc2)OCCCC[C@H](C)Oc2ccc(NC(=O)Cc3ccccc3)cc2C1=O` : inhibition is -3.29

What the record says about `COCC#Cc1ccc2c(c1)O[C@H](CN(C)C(=O)CC1CC1)[C@@H](C)CN([C@@H](C)CO)S2(=O)=O` : inhibition is 8.01

What the record says about `C[C@@H]1CN([C@@H](C)CO)C(=O)c2cc(-c3ccncc3)cnc2O[C@@H]1CN(C)C(=O)C1CCCCC1` : inhibition is 1.45

What the record says about `C[C@@H]1CCCCO[C@H](CN(C)C(=O)CCC(F)(F)F)[C@H](C)CN([C@H](C)CO)C(=O)c2cc(NC(=O)NC3CCCCC3)ccc2O1` : inhibition is -3.86

What the record says about `C[C@H](CO)N1C[C@H](C)[C@@H](CN(C)S(=O)(=O)c2ccc(Cl)cc2)Oc2ccc(NS(C)(=O)=O)cc2CC1=O` : inhibition is 1.76

What the record says about `C[C@@H]1CN([C@H](C)CO)S(=O)(=O)c2ccc(-c3ccncc3)cc2O[C@H]1CN(C)S(=O)(=O)c1ccccc1F` : inhibition is -2.69

What the record says about `COc1cccc(S(=O)(=O)N[C@H]2CC[C@H](CC(=O)NC3CCC3)O[C@H]2CO)c1` : inhibition is 8.91

What the record says about `COc1ccc(NC(=O)N(C)C[C@@H]2Oc3ccc(NC(=O)Cc4cn(C)c5ccccc45)cc3CC(=O)N([C@@H](C)CO)C[C@H]2C)cc1` : inhibition is -6.14

What the record says about `C[C@@H]1CN([C@H](C)CO)C(=O)Cc2cc(NC(=O)Nc3cccc4ccccc34)ccc2O[C@H]1CN(C)C(=O)Nc1ccc2c(c1)OCO2` : inhibition is -7.81

What the record says about `C[C@H]1CN([C@@H](C)CO)C(=O)c2cc(-c3ccncc3)cnc2O[C@H]1CN(C)C(=O)c1cccc(F)c1` : inhibition is -1.28

What the record says about `C[C@H]1CN([C@@H](C)CO)C(=O)Cc2cc(NC(=O)Nc3cccc4ccccc34)ccc2O[C@@H]1CN(C)C` : inhibition is 1.05

What the record says about `CC(=O)N(C)C[C@H]1Oc2cc(C#Cc3ccccc3F)ccc2S(=O)(=O)N([C@@H](C)CO)C[C@H]1C` : inhibition is -2.4

What the record says about `CC(C)NC(=O)N(C)C[C@@H]1Oc2ncc(C#Cc3ccncc3)cc2C(=O)N([C@@H](C)CO)C[C@@H]1C` : inhibition is 4.8

What the record says about `CC(C)CC#Cc1ccc2c(c1)O[C@H](CN(C)C(=O)CC1CC1)[C@@H](C)CN([C@@H](C)CO)S2(=O)=O` : inhibition is -15.5

What the record says about `O=C(C[C@@H]1C[C@@H]2c3cc(NC(=O)c4ccc5c(c4)OCO5)ccc3O[C@@H]2[C@@H](CO)O1)NCC1CC1` : inhibition is 0.538
